Biological target: Follicle-stimulating hormone receptor (Homo sapiens) (UniProt P23945)
Sequence (whole entry): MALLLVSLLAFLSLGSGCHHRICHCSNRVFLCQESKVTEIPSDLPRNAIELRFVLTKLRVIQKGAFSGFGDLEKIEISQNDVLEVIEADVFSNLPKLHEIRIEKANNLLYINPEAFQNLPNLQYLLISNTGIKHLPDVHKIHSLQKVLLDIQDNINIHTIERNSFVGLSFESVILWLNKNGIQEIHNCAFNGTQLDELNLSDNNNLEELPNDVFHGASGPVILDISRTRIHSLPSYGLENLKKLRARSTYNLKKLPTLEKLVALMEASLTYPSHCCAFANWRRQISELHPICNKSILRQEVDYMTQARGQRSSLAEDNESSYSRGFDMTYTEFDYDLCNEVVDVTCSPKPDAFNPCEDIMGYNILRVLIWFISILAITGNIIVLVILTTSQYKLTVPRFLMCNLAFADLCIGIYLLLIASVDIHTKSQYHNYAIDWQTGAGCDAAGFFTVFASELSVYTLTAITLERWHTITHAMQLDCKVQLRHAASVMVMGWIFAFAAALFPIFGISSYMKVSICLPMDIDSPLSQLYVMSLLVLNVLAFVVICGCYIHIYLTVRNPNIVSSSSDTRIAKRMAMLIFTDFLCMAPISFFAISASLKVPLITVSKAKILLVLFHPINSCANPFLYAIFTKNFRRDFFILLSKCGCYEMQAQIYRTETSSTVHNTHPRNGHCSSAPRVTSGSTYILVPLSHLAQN
Test: In vitro inhibition of maximum response on CHO-K1 cells expressing human Follicle stimulating hormone receptor at 1E-5M
Assay type: functional, cell-based
readoutKind: inhibition (%)
The reply should contain only the number, in %.

CC(=O)N1c2ccc(C(=O)Nc3ccc(-c4ccccc4)cc3)cc2C(C)(c2ccccc2)CC1(C)C (centres undefined) : 44
CC(=O)N1c2ccc(C(=O)NCc3cccs3)cc2C(C)(c2ccccc2)CC1(C)C (centres undefined) : 25
CC(=O)N1c2ccc(OCCc3ccccc3)cc2C(C)(c2ccccc2)CC1(C)C (centres undefined) : 80

The record that follows has no inhibition shown yet.
Entry CC(=O)N1c2ccc(NC(=O)c3ccc(-c4ccc(C(C)(C)C)cc4)cc3)cc2C(C)(c2ccccc2)CC1(C)C (centres undefined) — recorded inhibition = 74

###

Target: Follicle-stimulating hormone receptor (Homo sapiens, UniProt P23945)
Sequence (P23945 whole entry): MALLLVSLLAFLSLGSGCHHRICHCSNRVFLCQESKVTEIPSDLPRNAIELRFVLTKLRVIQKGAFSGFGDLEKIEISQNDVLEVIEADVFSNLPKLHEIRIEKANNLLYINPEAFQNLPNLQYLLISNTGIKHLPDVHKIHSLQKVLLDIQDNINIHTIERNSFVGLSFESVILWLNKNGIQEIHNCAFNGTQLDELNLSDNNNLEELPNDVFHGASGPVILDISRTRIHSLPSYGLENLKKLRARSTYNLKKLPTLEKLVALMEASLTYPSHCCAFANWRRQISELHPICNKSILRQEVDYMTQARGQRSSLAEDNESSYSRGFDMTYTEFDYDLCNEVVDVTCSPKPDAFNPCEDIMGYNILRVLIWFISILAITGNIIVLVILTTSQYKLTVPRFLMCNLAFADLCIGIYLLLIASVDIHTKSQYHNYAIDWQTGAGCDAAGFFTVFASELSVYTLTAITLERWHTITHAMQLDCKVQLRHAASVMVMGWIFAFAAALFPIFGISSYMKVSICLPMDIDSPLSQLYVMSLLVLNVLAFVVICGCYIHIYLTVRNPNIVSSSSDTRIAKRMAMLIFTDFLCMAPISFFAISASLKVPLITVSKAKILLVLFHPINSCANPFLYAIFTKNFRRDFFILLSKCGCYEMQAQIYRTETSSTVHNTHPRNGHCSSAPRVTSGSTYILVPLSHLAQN
Test: In vitro inhibition of maximum response on CHO-K1 cells expressing human Follicle stimulating hormone receptor
Type: functional, cell-based
Threshold 20 nM. IC50 below it: TRUE. IC50 at it or above: FALSE.

Examples from the recorded data:
CC(=O)N1c2ccc(NC(=O)c3ccc(-c4ccccc4)cc3)cc2C(C)(c2ccc(O)cc2)CC1(C)C (stereo not given) : FALSE
CC(=O)N1c2ccc(NC(=O)c3ccccc3-c3ccccc3)cc2C(C)(c2ccccc2)CC1(C)C (stereo not given) : FALSE
CC(=O)N1c2ccc(NS(=O)(=O)Cc3ccccc3)cc2C(C)(c2ccccc2)CC1(C)C (stereo not given) : FALSE
CC(=O)N1c2ccc(NCc3ccc(C(C)(C)C)cc3)cc2C(C)(c2ccccc2)CC1(C)C (stereo not given) : FALSE
CC(=O)N1c2ccc(NC(=O)c3ccc(-c4ccccc4)cc3)cc2C(C)(c2ccccc2)CC1(C)C (single isomer, unassigned; isomer II) : TRUE
CC(=O)N1c2ccc(NC(=O)c3ccco3)cc2C(C)(c2ccccc2)CC1(C)C (stereo not given) : FALSE
CC(=O)N1c2ccc(NC(=O)c3cccc(-c4ccccc4)c3)cc2C(C)(c2ccccc2)CC1(C)C (stereo not given) : TRUE
CCCc1ccc(C(=O)Nc2ccc3c(c2)C(C)(c2ccccc2)CC(C)(C)N3C(C)=O)cc1 (stereo not given) : TRUE
COc1ccc(CCNC(=O)c2ccc3c(c2)C(C)(c2ccccc2)CC(C)(C)N3C(C)=O)cc1 (stereo not given) : FALSE

Switching to the query record.
Is IC50 of CC(=O)N1c2ccc(NC(=O)c3ccc(Cl)cc3)cc2C(C)(c2ccccc2)CC1(C)C (stereo not given) strictly below 20 nM?
FALSE

Cited source: ChEMBL document CHEMBL1145193
